- experimentDescription: soluble on expression in E. coli; label from the status in PepcDB or PDB records
reportedProperty: soluble on expression in E. coli

Record excerpt, results attached:
EVVEDVLTNAIENGSSIQDIELTLKDMPQFDRERARTTAITEVLAASSAAQHESYAQSPAVKKKKWRHSGGKKNNPRENHIDLDGTVIGVDEEFQIPGSSETCMFPRDPKLSTRERVNCHCVLS; not soluble
NLKVEFYNSNPSDTTNSINPQFKVTNTGSSAIDLSKLTLRYYYTVDGQKDQTFWCDHAAIIGSNGSYNGITSNVKGTFVKMSSSTNNADTYLEISFTGGTLEPGAHVQIQGRFAKNDWSNYTQSNDYSFKSASQFVEWDQVTAYLNGVLVWGKEP; soluble
GKPFYYDVNFNLADSRAYITKYENPKGLLGDYYVGKEIGEIWGVETLGFFTSEEDIKNHADQSWCTSYPGTRPLAPGDLKFKDENKDGKITDGAWTLEDHGDYKIIGNSRARYTFGLSANAQWNGFDLSLFAQGVGKKDYYPGTGDLYFWGIYAQPWTNITKGNMYDHWTEENPDAYFPRMKAYVAENTDRECGVVQTRYLQNAAYMRLKNLTVGYTLPKVLLNKIGIERLRIFFSGDNLCEFSGLYKHYKVDPESLGNIVYPLQRSYSFGLNVTF; not soluble
MELSRGASAPDPDDVRPLKPCLLRRNHSRDQHGVAASSLEELRSKACELLAIDKSLTPITLVLAEDGTIVDDDDYFLCLPSNTKFVALACNEKWTYNDSDGGTAWVSQESFEADEPDSRAGVKWKNVARQLKEDLSSIILLSEEDLQALIDIPCAELAQELCQSCATVQGLQSTLQQVLDQREEARQSKQLLELYLQALEKEGNILSNQKESKAALSEELDAVDTGVGREMASEVLLRSQILTTLKEKPAPELSLSSQDLESVSKEDPKALAVALSWDIRKAETVQQACTTELALRLQQVQSLHSLRNLSARRSPLPGEPQRPKRAKRDSS; soluble
GPSSPAGGEARVHVLVLSSWRSGSSFVGQLFNQHPDVFYLMEPAWHVWTTLSQGSAATLHMAVRDLVRSVFLCDMDVFDAYLPWRRNLSDLFQWAVSRALCSPPACSAFPRGAISSEAVCKPLCARQSFTLAREACRSYSHVVLKEVRFFNLQVLYPLLSDPALNLRIVHLVRDPRAVLRSREQTAKALARDNGIVLGTNGTWVEADPGLRVVREVCRSHVRIAEAATLKPPPFLRGRYRLVRFEDLAREPLAEIRALYAFTGLSLTPQLEAWIHNITHGSGPGARREAFKTSSRNALNVSQAWRHALPFAKIRRVQELCAGALQLLGYRPVYSEDEQRNLALDLVLPRGLNGFTWASSTASHPRN; soluble

Documented soluble on expression in E. coli of MTTHLPSTSQNGEEISAEQFNRIFHERNVIVLDCRSNGDSVKRANRFFCSLRLPALLQRRLMGGSMRLSTVPDLKDLNNSPDQCPEVLLIPGDSEQDEQLSAALARNLKSNHYRHFVLGEPVKTLLSQFPTLRDAADENWNTTFQMNSMPGQASGQQASSGPLLNLNQLRLEGEDQGGKQRAEFPVKLTNFLYLGNAETAKNRDVLKKYSISHVINVTSNLPNTFEEDPNMRYLRISADDNASHNLTKFFPEAISFIDDARRNDSACLVHCLAGISRSVTICLAYLMKTEMCTLDSAYEWVQKRNASIAPNFHFMGQLTDYEKMLGLNSNRVGVSRQAVNFDVHFFCIFKLKKKEENSPESRILAETAV : not soluble

Recorded result, MTRSGNTRNGKYMGEDKRRYHTITNILQYNLIPDFFTIFAKYCITFKNMTMEKTFAQISELFDQFSKDASLQVEKGNKAAGTRARKASLELEKLLKRFRKESLEASK , soluble on expression in E. coli: not soluble

Note to self: soluble on expression in E. coli recorded for MAHHHHHHMKEGDFEGAEERFIKAIEEIEKFPEGKVDPKLVEQMRELLEDAREMKDGRFKEIQEFIQEQFAVNETERLPTAHEFYGDVDEQQHPFVSRLPNDGECSALSMPQSNTNPVQWSEHSNSMSLSLFPSQVNGRSSEASNSQPVQHVVARRKPKPLQKQKALEVESSGNVSTGSDMKRFRAES was soluble

// MGNKITVEVTVYAAIEKVWKYWNEPAHIMKWCQASPEWHVPAAQNDLKAGGTFTTTMAAKDGSMSFDFGGVYDQVKTNDLIEYTIGDGRKVRIVFTHTGDTTNIVESFDPEETNPRELQQSGWQAILNSFKSYTENNLEHHHHHH : soluble on expression in E. coli value = soluble

###

- experimentDescription: soluble on expression in E. coli; label from the status in PepcDB or PDB records
reportedProperty: soluble on expression in E. coli

MGSDKIHHHHHHMSSLPLQKSLYPLLRPLGAAYRVLMRARRRRYENGAACGTDVPCVSVGNIGWGGSGKTPVVQWLLQWAAVHGLHAVVLTRGYKASPPGLPYVVTPQSSAAHAGDEPLMLARSCPQATVVVDPVRSRSARWAQERLAPDFFVLDDGFQHVQVARDTDLVLLKKDDLHAEWGRVLPAGSWREGPEALSRAAAFCIKCGSGEFSGLVPDFENRLGSFGVPVFGFSLRPGALIPVCGAHEGAQLPAGAPYVLFSGVGDPAQVAVTVSSFLGYDPVRHHVFADHHGYTQADMDRMAGYGLPLVCTPKDAVKLTAPCGVPVWTLSLETNFHSVWNAQPPAGQAGEGFAQWWQCRWQRLAGLR; not soluble
MGSDKIHHHHHHMYLKVYKEDVIEGLQKAANIIPAKTGAAYLRSIWLNAADGTLSVMATDSNIEFRGTYTAEVTEPGLAGVQGRAFVDLLRKLPAGEIVLQLDAEANVLRIEQGRRKYKLPVNDPVWFQNFSDFPADGAVVWSGDFLQELIDRIAFCISDEDAVEAIACLFMKPVAEGRIEACGLNGHQFAMLRFLHDDLHAKLPAEGVLVQKKYLGELKKWLGADEIELNISEKRMHLRTGDGRETFSLPLSSYQYPDYMNFIAKLQGEGVSNLEVDRKEGMDALDRLQIFNSDNNRCTYFDLSGGEVVLTAQGQDVGSASESLEASYDGDIRRIAFPTRNLIDIMNHYQSGRLRLTLTGAEGPCGISGEEDPEYQVIVMPMKIVEETYYSEEEV; not soluble

###

- experimentDescription: soluble on expression in E. coli; label from the status in PepcDB or PDB records
reportedProperty: soluble on expression in E. coli

MGSDKIHHHHHHMFDWEDLRHFSAFSSAGSLSAAAKTLGVDHATVARRIASLEASLQLKLVDRRPRAYALTHEGQRVAELAEQMAMSSFALEHFASAGQQTVEGEVVLSAPPALLGSIIARRLGELYQRYPQLRLKLVGSKSKASLVRREADISIALARPTEPTLVVSLLGHLDYRLYASPGYLASATVRRYIGYDESQARSPQQQWLNLQAGQQPFALHSNDLRIQAQACAGGIGIACLPAFMAQEHGLKEAGSAQQTMSIEIWLAVHEDVRATPRIKAVTDFLQQQVRPLLRL; not soluble
MPLRPQRPCRAQGCRSLHRNANGYCDGHADLAAEQAKAWATRKGSGRGGRPWRRKRERILKRDQYLCRCDDCAQLGRIREAHEVDHIVALAHGGTDDDDNLRAINRDCHKAKTQRESKTIKKLEHHHHHH; not soluble

###

- experimentDescription: soluble on expression in E. coli; label from the status in PepcDB or PDB records
reportedProperty: soluble on expression in E. coli

SERGDQPKRTRNENIFNCLYKNPEATFKLICFPWMGGGSTHFAKWGQDTHDLLEVHSLRLPGRESRVEEPLENDISQLVDEVVCALQPVIQDKPFAFFGHSMGSYIAFRTALGLKENNQPEPLHLFLSSATPVHSKAWHRIPKDDELSEEQISHYLMEFGGTPKHFAEAKEFVKQCSPIIRADLNIVRSCTSNVPSKAVLSCDLTCFVGSEDIAKDMEAWKDVTSGNAKIYQLPGGHFYLLDPANEKLIKNYIIKCLEVSSISNF; soluble
MSLKLPGKIAIMGGGSWATAIAKMCLAQEDSINWYMRRDDRIADFKRLGHNPAYLTGVKFDTKRITFSSNINDVVKESDTLIFVTPSPYLKAHLKKLKTKIKDKFIITAIKGIVPDDNVIVSEYFTKEYGVPPENIAVLAGPCHAEEVALERLSYLTIACPDKDKARIFARRLGSSFIKTSVSDDVAGIEYSSVLKNVYAIAAGICSGLKYGDNFQAVLISNAIQEMNRFLNTVHPLNRNVDDSVYLGDLLVTGYSNFSRNRTFGSMIGKGYSVKSAQIEMEMIAEGYYGTKCIKEINKHHHVNMPILDAVYNILYERISPMIEIKLLTDSFREGHHHHHH; soluble

###

- experimentDescription: soluble on expression in E. coli; label from the status in PepcDB or PDB records
reportedProperty: soluble on expression in E. coli

EEPSSNEIHIGSLVIFPDAYVVSKRDETIELTHREFELLHYLAKHIGQVMTREHLLQTVWGYDYFGDVRTVDVTVRRLREKIEDNPSHPNWIVTRRGVGYYLRNPEQD; soluble
SDPVDYQAEDATIVQGAVESNHAGYTGTGFVNYDNVAGSSVEWTVTVPSAGTYDVVVRYANGTTTSRPLDFSVNGSISASGVAFGSTGTWPAWTTKTVRVTLAAGVNKIKAVATTANGGPNVDKITL; soluble
MVLGKPQTDPTLEWFLSHCHIHKYPSKSTLIHQGEKAETLYYIVKGSVAVLIKDEEGKEMILSYLNQGDFIGELGLFEEGQERSAWVRAKTACEVAEISYKKFRQLIQVNPDILMRLSAQMARRLQVTSEKVGNLAFLLVTGRIAQTLLNLAKQPDAMTHPDGMQIKITRQEIGQIVGCSRETVGRILKMLEDQNLISAHGKTIVVYGTR; soluble
